Data provenance is patent US8673841B2.

Selectivity hV2/hOT overview
- measurement target: human vasopressin (hV2) receptor (Homo sapiens, UniProt P30518)
- Sequence (P30518 whole entry): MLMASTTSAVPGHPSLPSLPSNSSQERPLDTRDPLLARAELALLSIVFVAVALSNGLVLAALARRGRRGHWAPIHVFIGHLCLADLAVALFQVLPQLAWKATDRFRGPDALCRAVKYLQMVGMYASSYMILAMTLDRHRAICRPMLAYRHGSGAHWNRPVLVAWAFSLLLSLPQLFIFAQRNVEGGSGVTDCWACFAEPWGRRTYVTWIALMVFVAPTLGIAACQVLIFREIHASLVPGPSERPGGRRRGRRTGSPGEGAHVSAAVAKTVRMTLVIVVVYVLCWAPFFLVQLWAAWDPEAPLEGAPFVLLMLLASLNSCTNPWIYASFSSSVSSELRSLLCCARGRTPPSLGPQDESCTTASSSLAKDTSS
- assay notes: luciferase-based transcriptional reporter gene assay expressing the human vasopressin (hV2) receptor
- condition summary: EC50 ratio hV2/hOT
Starred links: 1 amine or outer side, 2 acyl side, 3 side chain; linkers in the order of their positions; H or OH if unused. Positions of bridges follow the written chain, without caps; N, C: chain ends. Non-standard residues stand in square brackets, D forms with d. Residues, ends and D or L forms follow the SMILES beside them. N(3-phenylpropyl)Gly = O=C(O)CNCCCc1ccccc1; Phe(4-Et) = CCc1ccc(C[C@H](N)C(=O)O)cc1; X1 = O=C(CN(Cc1ccc(F)c(F)c1)[*:1])[*:2]; X4 = Cc1ccc(CCN(CC(=O)[*:2])[*:1])cc1; cisHyp = O=C(O)[C@@H]1C[C@H](O)CN1; X2 = O=C(CCC[*:2])[*:1]; Mpa = O=C(O)CCS
readout type: Selectivity hV2/hOT

{"molecule": "CC[C@H](C)[C@@H]1NC(=O)[C@H](Cc2ccc(O)cc2)NC(=O)CCSSC[C@@H](C(=O)N(CCCc2ccccc2)CC(=O)N[C@@H](CC(C)C)C(=O)NCC(N)=O)NC(=O)[C@H](CC(N)=O)NC(=O)[C@H](CCC(N)=O)NC1=O [Compound 25] ([Mpa]YIQNC[N(3-phenylpropyl)Gly]LG-NH2; disulfide 1-6)", "measurement target": "human vasopressin (hV2) receptor (Homo sapiens, UniProt P30518)", "readout type": "Selectivity hV2/hOT", "endpoint value": 2736}
{"molecule": "CC[C@H](C)[C@@H]1NC(=O)[C@H](Cc2ccc(O)cc2)NC(=O)CCSSC[C@@H](C(=O)N(CCc2ccc(C)cc2)CC(=O)N[C@@H](CC(C)C)C(=O)NCC(N)=O)NC(=O)[C@H](CC(N)=O)NC(=O)[C@H](CCC(N)=O)NC1=O [Compound 15] ([Mpa]YIQNC[X4]LG-NH2; disulfide 1-6)", "measurement target": "human vasopressin (hV2) receptor (Homo sapiens, UniProt P30518)", "readout type": "Selectivity hV2/hOT", "endpoint value": 2533}
{"molecule": "CCc1ccc(C[C@@H]2NC(=O)CCCSC[C@@H](C(=O)N3C[C@@H](O)C[C@H]3C(=O)N[C@@H](CC(C)C)C(=O)NCC(N)=O)NC(=O)[C@H](CC(N)=O)NC(=O)[C@H](CCC(N)=O)NC(=O)[C@H]([C@@H](C)CC)NC2=O)cc1 [Compound 6] ([Phe(4-Et)]IQNC[cisHyp]LG-NH2; linker N-5 via X2)", "measurement target": "human vasopressin (hV2) receptor (Homo sapiens, UniProt P30518)", "readout type": "Selectivity hV2/hOT", "endpoint value": 629}
{"molecule": "CC[C@H](C)[C@@H]1NC(=O)[C@H](Cc2ccc(O)cc2)NC(=O)CCSSC[C@@H](C(=O)N(CC(=O)N[C@@H](CC(C)C)C(=O)NCC(N)=O)Cc2ccc(F)c(F)c2)NC(=O)[C@H](CC(N)=O)NC(=O)[C@H](CCC(N)=O)NC1=O [Compound 11] ([Mpa]YIQNC[X1]LG-NH2; disulfide 1-6)", "measurement target": "human vasopressin (hV2) receptor (Homo sapiens, UniProt P30518)", "readout type": "Selectivity hV2/hOT", "endpoint value": 2217}
